# measurement target: RGS2-FBXO44 interaction (Homo sapiens)
# Construct: expressed in transfected cells
# Sequence (P41220 1-211): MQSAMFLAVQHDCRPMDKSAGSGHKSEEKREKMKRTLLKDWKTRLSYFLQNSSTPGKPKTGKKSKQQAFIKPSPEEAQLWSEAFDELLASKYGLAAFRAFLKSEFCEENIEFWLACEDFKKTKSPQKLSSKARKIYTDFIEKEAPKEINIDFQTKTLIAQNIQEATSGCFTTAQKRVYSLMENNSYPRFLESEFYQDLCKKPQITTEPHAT
# assay overview: RGS2-FBXO44 NanoBit assay (HEK-293T RGS2-SmBiT/LgBiT-FBXO44 stable clone #6)
# Assay type: cell-based
# test settings: concentrations 500 to 0.01 μM; RLU normalized to viability (RFU); read-out: IC50 (μM), inhibition of RGS2-FBXO44 NanoBit signal
Examples of compounds with documented IC50 follow.
Report only the number, with the unit µM understood.

# count of solved cases: 5
compound	observed value
CCOc1ccc(C(=O)Nc2ccc3c(c2)N(C(=O)C(C)C)CCC3)cc1OCC	151
O=C(NCC1(O)CCOc2ccccc21)C1(c2ccc(Cl)cc2)CCCC1 (stereo not drawn)	5.8
CCC1CCCCN1S(=O)(=O)c1cc(Br)ccc1OC (stereo not drawn)	19.6
O=C(Cc1ccccc1Cl)N(CCc1cccs1)C1CCOCC1	122
Cc1cc(C)c(C)c(S(=O)(=O)N2CCCC2)c1C	42.1

Now consider the entry below.
So for Cc1cc(C)c(C)c(Cn2c(CCNC(=O)CCC(C)O)nc3ccccc32)c1C (stereo not drawn) , the logged IC50 turned out to be 20.3

Source listed as paper PMC13095444.
